Would you mind telling me the reported Rabbit placenta inhibition % @100 nM of each entry?
# Tested on: HSD1 enzyme that is expressed in rabbit placenta tissue
# Assay Summary: Inhibition of E1 to E2 conversion in rabbit placenta tissue homogenate
# Format: biochemical
# Protocol Conditions: inhibitor 100 nM, 30 nM estrone, 30 min
One number for each entry, in %.

Examples with their reported Rabbit placenta inhibition % @100 nM follow.
Compound: COc1ccc(NC(=O)CC[C@@H]2C/C(=N\O)[C@@]3(C)CCC4c5ccc(F)cc5CCC4C23)nc1 (some centres unmarked)
Tested Target: HSD1 enzyme that is expressed in rabbit placenta tissue
Recorded Value: 48
--
Compound: CN(C(=O)CC[C@@H]1C/C(=N\O)[C@@]2(C)CCC3c4ccc(F)cc4CCC3C12)C1COC1 (some centres unmarked)
Tested Target: HSD1 enzyme that is expressed in rabbit placenta tissue
Recorded Value: 12
--
Compound: Cc1ccc(NC(=O)CC[C@@H]2C/C(=N\O)[C@@]3(C)CCC4c5cccc(F)c5CCC4C23)nn1 (some centres unmarked)
Tested Target: HSD1 enzyme that is expressed in rabbit placenta tissue
Recorded Value: 81

Below are 5 compounds. Give each one its Rabbit placenta inhibition % @100 nM.
1. CNC(=O)CC[C@@H]1C/C(=N\O)[C@@]2(C)CCC3c4cccc(F)c4CCC3C12 (some centres unmarked)
2. C[C@]12CCC3c4cccc(F)c4CCC3C1[C@H](CCC(=O)NC1COC1)C/C2=N\O (some centres unmarked)
3. C[C@]12CCC3c4ccc(Cl)cc4CCC3C1[C@H](CCC(=O)Nc1cc(F)ccn1)C/C2=N\O (some centres unmarked)
4. C[C@]12CCC3c4cccc(F)c4CCC3C1[C@H](CCC(=O)Nc1ncccc1F)C/C2=N\O (some centres unmarked)
5. C[C@]12CCC3c4ccccc4CCC3C1[C@H](CCC(=O)Nc1ncc(F)cc1F)C/C2=N\O (some centres unmarked)

# output
−1
18
3
34
3

Quick request: Rabbit placenta inhibition % @100 nM for each listed item, please.
1. C[C@]12CCC3c4cccc(F)c4CCC3C1[C@H](CCC(=O)Nc1cccc(F)n1)C/C2=N\O (some centres unmarked)
2. COc1ccc(NC(=O)CC[C@@H]2C/C(=N\O)[C@@]3(C)CCC4c5ccc(F)cc5CCC4C23)nn1 (some centres unmarked)
3. C[C@]12CCC3c4ccc(F)cc4CCC3C1[C@H](CCC(=O)Nc1ccc(F)cn1)C/C2=N\O (some centres unmarked)

# output
24
79
10
